Target: P2X7 (Homo sapiens (Human))
Sequence (Q99572 whole entry): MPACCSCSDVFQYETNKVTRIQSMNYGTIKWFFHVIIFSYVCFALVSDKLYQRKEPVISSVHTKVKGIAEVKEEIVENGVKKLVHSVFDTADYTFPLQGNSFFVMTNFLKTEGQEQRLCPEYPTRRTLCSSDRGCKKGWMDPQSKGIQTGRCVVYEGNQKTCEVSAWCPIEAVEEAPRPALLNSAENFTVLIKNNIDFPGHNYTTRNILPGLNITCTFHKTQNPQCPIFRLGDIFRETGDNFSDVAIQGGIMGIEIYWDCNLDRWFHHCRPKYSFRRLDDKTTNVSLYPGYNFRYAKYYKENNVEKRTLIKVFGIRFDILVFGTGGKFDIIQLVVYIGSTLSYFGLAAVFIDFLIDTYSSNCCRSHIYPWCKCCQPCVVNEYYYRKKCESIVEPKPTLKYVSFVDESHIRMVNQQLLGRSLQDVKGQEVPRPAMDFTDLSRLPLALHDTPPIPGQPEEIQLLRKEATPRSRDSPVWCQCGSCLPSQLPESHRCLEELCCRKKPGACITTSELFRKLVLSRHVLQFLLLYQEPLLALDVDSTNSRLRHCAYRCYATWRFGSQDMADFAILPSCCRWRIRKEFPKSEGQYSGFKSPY
Assay: P2X7 antagonism in human peripheral blood mononuclear cells (PBMCs), IL-1β release
Format: cell-based
Settings: P2X7; Table 3 (additional runs); 10 μM compound; read-out: PBMC 10 μM (% control)
measured-quantity: remaining activity at 10 µM (%)

Cc1cccc(C)c1CN1C(=O)c2nnc(-c3cnccn3)n2C[C@@H]1C: 27

a: CC[C@H]1Cn2c(nnc2-c2ncccn2)C(=O)N1Cc1cccc(C(F)(F)F)c1Cl
b: C[C@H]1Cn2c(nnc2-c2cnccn2)C(=O)N1Cc1ccc(S(C)(=O)=O)cc1Cl
Lab notebook, comparison: a versus b , higher remaining activity at 10 µM goes to which? Please respond with the label that marks your chosen entry.
b
(b: 170%, a: 1.9%)

---

Target: P2X7 (Homo sapiens (Human))
Experiment: P2X7 antagonism in human peripheral blood mononuclear cells (PBMCs), IL-1β release
Type: cell-based
Conditions: P2X7; Table 3 (additional runs); 10 μM compound; read-out: PBMC 10 μM (% control)
measured-quantity: remaining activity at 10 µM (%)

C[C@H]1Cn2cnnc2-c2nnc(-c3cccc(C(F)(F)F)c3Cl)n21: 40.2
Cc1c(-c2nnc3n2[C@@H](C)Cn2c(-c4ccc(F)cn4)nnc2-3)cccc1C(F)(F)F: 3.8
C[C@H]1Cn2c(-c3ccc(Cl)cn3)nnc2-c2nnc(-c3cccc(C(F)(F)F)c3Cl)n21: 7
COc1ccnc(-c2nnc3n2C[C@H](C)n2c(-c4cccc(Cl)c4Cl)nnc2-3)c1: -0.2
C[C@H]1Cn2c(nnc2-c2cnccn2)C(=O)N1Cc1cccc(C(F)(F)F)c1: 29.9

1: Cc1ncsc1-c1nnc2n1C[C@H](C)N(Cc1cccc(C(F)(F)F)c1Cl)C2=O
2: O=C1c2nnc(-c3cnccn3)n2CC(C2CC2)N1Cc1cccc(C(F)(F)F)c1Cl (racemic)
3: CS(=O)(=O)c1cc(Cl)ccc1CN1CCn2c(nnc2-c2cnccn2)C1=O
Arrange these compounds by their remaining activity at 10 µM, starting with the largest number. Lab note: record answer as labels in requested order.
1, 3, 2

---

Target: P2X7 (Homo sapiens (Human))
Experiment: P2X7 antagonism in human peripheral blood mononuclear cells (PBMCs), IL-1β release
Assay type: cell-based
Settings: P2X7; Table 3 (additional runs); 10 μM compound; read-out: PBMC 10 μM (% control)
Description: P2X7 Antagonism in Human Peripheral Blood Mononuclear Cells (PBMCs) and Human Whole Blood. Human blood was collected using a blood donor program. PBMCs were isolated from blood using a Ficoll density gradient technique. […] Data was expressed as percent control, where control is defined as the difference in IL-1β release in LPS+Bz-ATP samples and LPS only samples. […] Data are analyzed and graphed on Graphpad Prism 5. […]
measured-quantity: remaining activity at 10 µM (%)

A: C[C@H]1Cn2c(nnc2-c2ccncc2)C(=O)N1Cc1cccc(C(F)(F)F)c1Cl [Example 47]
B: C[C@H]1Cn2c(-c3cnco3)nnc2-c2nnc(-c3cccc(C(F)(F)F)c3Cl)n21 [Example 115]
Dear colleague, could you let me know whether A or B has the lower recorded remaining activity at 10 µM? Thanks. Mark your answer with the label of the selected entry.
A

A: C[C@H]1Cn2c(nnc2-c2cnccn2)C(=O)N1Cc1ccc(Cl)cc1S(C)(=O)=O [Example 82]
B: C[C@H]1Cn2c(nnc2-c2cn[nH]c2)C(=O)N1Cc1cccc(C(F)(F)F)c1Cl [Example 25]
Endpoint returns whichever of A and B has the numerically higher remaining activity at 10 µM. Give the label of your selection.
A
(A: 22.2%, B: 2.8%)
